- Tested on: 786-0
- Assay Details: Anti-ferroptotic activity against RSL3 induced ferroptosis in human 786-0 cells assessed as cell viability incubated for 24 hrs by Cell-titer-glo assay
- Type: functional, cell-based
- Study Conditions: 786-0, 24 h
Endpoint Label: EC50 (µM)

A = CCOC(=O)c1ccc(NC2CCCCC2)c(N)c1
B = Oc1ccc(-c2[nH]nc(-c3ccc(Cl)cc3)c2O)cc1
Which is greater in EC50, the first item A or the second item B ? Pick one and reply with its label.
A
(A: 0.253 µM, B: 0.0897 µM)

====

- Tested on: HT-1080
- Assay Details: Anti-ferroptotic activity in human HT-1080 cells assessed as cell viability incubated for 24 hrs by Cell-titer-glo assay
- Type: functional, cell-based
- Study Conditions: Homo sapiens, HT-1080, 24 h
pEC50: −log10 of the molar value.
Endpoint Label: pEC50

>>> recorded_result("Oc1c(-c2cccc(Cl)c2)n[nH]c1-c1ccccc1")
6.73
>>> recorded_result("CN(C)CCCNC(=O)c1ccc(-c2[nH]nc(-c3ccc(Cl)cc3)c2O)cc1")
7.35
>>> recorded_result("Oc1c(-c2ccc(Cl)cc2)n[nH]c1-c1cnc[nH]1")
7.59
>>> recorded_result("Oc1c(-c2ccc(Cl)cc2)n[nH]c1-c1ccccc1")
7.51
>>> recorded_result("CCOC(=O)c1ccc(NC2CCCCC2)c(N)c1")
7.63
>>> recorded_result("COc1ccc(-c2n[nH]c(-c3ccccc3)c2O)cc1")
7.61

P = Oc1c(-c2ccc(Cl)cc2)n[nH]c1-c1ccc(C(F)(F)F)cc1
Q = Oc1ccc(-c2[nH]nc(-c3ccc(Cl)cc3)c2O)cc1O
R = Oc1c(-c2ccc(Cl)cc2Cl)n[nH]c1-c1ccccc1
S = Oc1ccc(-c2[nH]nc(-c3ccc(Cl)cc3)c2O)cc1
Order the items by recorded pEC50; the first position goes to the largest value. Labels, ranked as asked.
S, Q, R, P
(S: 8.07, Q: 7.58, R: 7.25, P: 6.73)
